assay: chemical genetic growth profiling, strain panel (AID 1159580);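 also: tested at 20 µM; growth read once vehicle control cultures reached saturation at 30 °C; 1 = growth at the plate median or of vehicle wells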; details: S. cerevisiae deletion strains, growth OD, locus YAL013W, strain DEP1
The campaign covered roughly 5,500 compounds. About 2,000 (36%) were called active. Another 18% or so got no clear call; they are omitted. Rule as the data show it: active = normalized growth mostly below about 0.91 (no sharp cut-off); inconclusive = no clear call, values can overlap the other calls; inactive = mostly above about 0.92. The list shows a part of the results.
Bench note: report the call from active, inactive

Sample answers from the record:
>>> answer_label("Cc1cc(/C=N/NC(N)=S)c2c(C)ccc(C(C)C)cc1-2")
"inactive"
>>> answer_label("c1ccc(CSC2=NCCCN2)cc1")
"inactive"
>>> answer_label("CN(C)CCCO[C@H]1[C@@H](C(O)CO)OC2OC(C)(C)O[C@@H]21 (stereo partly specified)")
"inactive"

Per the records of this test, what outcome belongs to CC(=O)O[C@H]1CC[C@@]2(C)C(=CCC3C2CC[C@]2(C)C(=O)CCC32)C1 (stereo partly specified) ?
active

Per the records of this test, what outcome belongs to CC12CCC3C(CC=C4CC(O)CCC43C)C1CCC2=O (stereo unspecified) ?
inactive

Per the records of this test, what outcome belongs to "CC1(C)CCC(C(C)(C)O)CC1" ?
inactive

###

assay: chemical genetic growth profiling, strain panel (AID 1159580); details: S. cerevisiae deletion strains, growth OD, locus YKR026C, strain gcn3, stronger effect = lower value
In all, about 5,500 compounds went through this assay and about 2,000 (36%) were called active. Inconclusive results (about 18%) are left out. This is one part of the list.
Measured normalized growth, listed per entry.
Returns: the value as a bare number; no unit string appended.

Previously resolved entries follow.
>>> experimental_result("COc1ccc2c(c1O)-c1c(OC)c(OC)cc3c1[C@H](C2)N(C)CC3")
0.981
>>> experimental_result("CCCN(CCC)CCc1cccc2c1CC(=O)N2")
0.968
>>> experimental_result("COc1cc(C)c2c(c1C=O)Oc1c(c(C)c(O)c3c1C(O)OC3=O)OC2=O (configuration not stated)")
1.01
>>> experimental_result("N[C@@H](CCC(=O)N[C@@H](CCSC(CC(=O)O)C(=O)O)C(=O)NCC(=O)O)C(=O)O (some centres not stated)")
0.993
>>> experimental_result("CCN(CC)CCOC(=O)C(Cc1cccc2ccccc12)CC1CCCO1 (configuration not stated)")
1.01
>>> experimental_result("S=c1[nH]c2ccccc2s1")
0.992
>>> experimental_result("OC/C=C/c1ccc(O)c(O)c1")
1
>>> experimental_result("COc1cc2c(cc1O)CC1c3c(cc(O)c(OC)c3-2)CCN1C (configuration not stated)")
0.983
>>> experimental_result("NCCCCN=C(N)N")
1.02
>>> experimental_result("CC1=C(/C=C/C(C)=C/C=C/C(C)=C\\C(=O)O)C(C)(C)CCC1")
0.982

Consider the compound shown here: COc1ccccc1OCC(O)CN1CCN(CC(=O)Nc2c(C)cccc2C)CC1 (configuration not stated) What is its recorded normalized growth?
1

Consider the compound shown here: CN1CCc2cccc3c2C1Cc1ccc(O)c(O)c1-3 (configuration not stated) What is its recorded normalized growth?
1.01

###

test: chemical genetic growth profiling, strain panel (AID 1159580); conditions: S. cerevisiae deletion strains, growth OD, locus YDL035C, strain GPR1, stronger effect = lower value
In all, about 5,500 compounds went through this assay and about 2,000 (36%) were called active. Not shown: some 18% with an inconclusive outcome. This is one part of the list.
Measured Property: normalized growth
Returns: the value as a bare number; no unit string appended.

Previously resolved entries follow.
>>> experimental_result("Cc1ccc(C(C)C)cc2c(C)ccc1-2")
1
>>> experimental_result("COc1ccc(/C=C/C(=O)O)cc1OC")
1.14
>>> experimental_result("CC(=O)C1=C(O)C2C3c4c[nH]c5cccc(c45)CC3C(C)(C)N2C1=O (stereo unspecified)")
1.01
>>> experimental_result("COc1cc(/C=C/C(=O)O)cc(OC)c1OC")
1.01

Consider the molecule shown here: CC1CC2C(C(O)CC3(C)C2CCC3(O)C(=O)COC(=O)CCC(=O)O)C2(C)C=CC(=O)C=C12 (stereo unspecified) What is its recorded normalized growth?
1.01

Consider the molecule shown here: COc1cc(C)c2c(c1C=O)Oc1c(c(C)c(O)c3c1C(O)OC3=O)OC2=O (stereo unspecified) What is its recorded normalized growth?
0.965

###

Measured normalized growth, listed per entry.
assay: chemical genetic growth profiling, strain panel (AID 1159580);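 also: tested at 20 µM; growth read once vehicle control cultures reached saturation at 30 °C; 1 = growth at the plate median or of vehicle wells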; conditions: S. cerevisiae deletion strains, growth OD, locus YOL012C, strain htz1
Among all 5,500 compounds or so, about 2,000 (36%) were called active. Inconclusive results (about 18%) are left out. The list shows a part of the results.
Returns: the value as a bare number; no unit string appended.

Previously resolved entries follow.
>>> experimental_result("CS(=O)(=O)OCCCCOS(C)(=O)=O")
0.364
>>> experimental_result("COc1ccc2c(c1O)-c1c(OC)c(OC)cc3c1[C@H](C2)N(C)CC3")
1.07
>>> experimental_result("CC[C@]12CCCN3CCc4c(n(c5ccccc45)C(=O)C1)[C@@H]32")
0.684
>>> experimental_result("CCCNC(C)C(=O)Nc1ccccc1C (stereo not given)")
0.66
>>> experimental_result("CN(C)CCCO[C@H]1[C@@H](C(O)CO)OC2OC(C)(C)O[C@@H]21 (stereo not given in full)")
0.444
>>> experimental_result("NCc1ccc(S(N)(=O)=O)cc1")
1.28

Consider the compound shown here: O=C(O)CCCCC1SCC2NC(=O)NC21 (stereo not given) What is its recorded normalized growth?
1.05

Consider the compound shown here: "COS(C)(=O)=O" What is its recorded normalized growth?
0.976

Consider the compound shown here: "COc1ccccc1N1CCNCC1" What is its recorded normalized growth?
0.807

Consider the compound shown here: COc1cc2c3cc1Oc1cc(ccc1O)OC1c4c(cc(OC)c(O)c4Oc4ccc(cc4)CC3N(C)CC2)CCN1C (stereo not given) What is its recorded normalized growth?
1.06

Consider the compound shown here: "Oc1cc(O)cc(/C=C/c2ccccc2)c1" What is its recorded normalized growth?
1.16

Consider the compound shown here: C[C@@H]1CC2C3CCC4=CC(=O)C=C[C@]4(C)[C@@]3(F)[C@@H](O)C[C@]2(C)[C@@]1(O)C(=O)COP(=O)(O)O (stereo not given in full) What is its recorded normalized growth?
1.85

Consider the compound shown here: "CCOC(N)=O" What is its recorded normalized growth?
1.41

Consider the compound shown here: "CC[C@]12CCCN3CCc4c(n(c5ccccc45)[C@](O)(C(=O)OC)C1)[C@@H]32" What is its recorded normalized growth?
0.992

Consider the compound shown here: "COc1ccc(/C=C/c2cc(O)cc(O)c2)cc1" What is its recorded normalized growth?
0.771

###

assay: chemical genetic growth profiling, strain panel (AID 1159580);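 also: tested at 20 µM; growth read once vehicle control cultures reached saturation at 30 °C; 1 = growth at the plate median or of vehicle wells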; details: S. cerevisiae deletion strains, growth OD, locus YLR039C, strain RIC1, stronger effect = lower value
In all, about 5,500 compounds went through this assay and about 2,000 (36%) were called active. Another 18% or so got no clear call; they are omitted. Some of the results follow.
Measured Property: normalized growth
Returns: the value as a bare number; no unit string appended.

>>> experimental_result("Nc1nc2ncc(CNc3ccc(C(=O)N[C@@H](CCC(=O)O)C(=O)O)cc3)nc2c(=O)[nH]1")
0.987
>>> experimental_result("O=C(CCN1CCOCC1)c1ccc2c(c1)OCCO2")
0.637
>>> experimental_result("C[C@@H]1CC2C3CCC4=CC(=O)C=C[C@]4(C)[C@@]3(F)[C@@H](O)C[C@]2(C)[C@@]1(O)C(=O)COP(=O)(O)O (stereo not given in full)")
1.02
>>> experimental_result("CC(C)c1nc2ccccc2[nH]1")
1.01

Now look at this entry.
Consider the molecule shown here: "CN=C1CN(O)C(c2ccccc2)=c2cc(Cl)ccc2=N1" What is its recorded normalized growth?
0.973

###

assay: chemical genetic growth profiling, strain panel (AID 1159580);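 also: tested at 20 µM; growth read once vehicle control cultures reached saturation at 30 °C; 1 = growth at the plate median or of vehicle wells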; settings: S. cerevisiae deletion strains, growth OD, locus YMR231W, strain pep5
Out of some 5,500 compounds screened, about 2,000 (36%) were called active. Another 18% or so got no clear call; they are omitted. No stated cut-off is given here; in the data, active means normalized growth mostly below about 0.91 (no sharp cut-off); inconclusive means no clear call, values can overlap the other calls; inactive means mostly above about 0.92. Some of the results follow.
Bench note: report the call from 1.0 (active), 0.0 (inactive)

Sample answers from the record:
>>> answer_label("c1ccc2[nH]c(-c3cscn3)nc2c1")
0.0
>>> answer_label("CC1=C(/C=C/C(C)=C/C=C/C(C)=C/C=C/C=C(C)/C=C/C=C(C)/C=C/C2=C(C)CCCC2(C)C)C(C)(C)CCC1")
0.0
>>> answer_label("O=C(O)CCCCC1SCC2NC(=O)NC21 (stereo not drawn)")
0.0
>>> answer_label("CC1=C(/C=C/C(C)=C/C=C/C(C)=C\\C(=O)O)C(C)(C)CCC1")
0.0
>>> answer_label("COc1cc(C)c2c(c1C=O)Oc1c(c(C)c(O)c3c1C(O)OC3=O)OC2=O (stereo not drawn)")
0.0

Per the records of this test, what outcome belongs to CCOC(=O)CCCCCCCCCCCCC1C=CCC1 (stereo not drawn) ?
0.0

Per the records of this test, what outcome belongs to CCOC(=O)C(C)(N)Cc1ccc(O)c(O)c1 (stereo not drawn) ?
0.0
